Items are presented alongside their recorded ave RR.
Target: T1, human insulin-like growth factor binding protein 4 (IBP4) (human, UniProt P22692 22-258)
T1 construct: also called IBP4 protein; IGFBP4
T1 sequence: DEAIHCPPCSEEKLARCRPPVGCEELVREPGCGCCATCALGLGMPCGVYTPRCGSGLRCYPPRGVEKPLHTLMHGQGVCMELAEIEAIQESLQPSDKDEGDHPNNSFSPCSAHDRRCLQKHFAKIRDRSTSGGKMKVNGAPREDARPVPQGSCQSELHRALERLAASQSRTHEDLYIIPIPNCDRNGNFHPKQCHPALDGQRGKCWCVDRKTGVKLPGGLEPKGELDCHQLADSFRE
Experiment: AC-MS, mAb on M-PVA beads, QC2 serum, round 1
Write no unit; give the number alone.

Before answering, review these 3 worked examples.
- binder: "anti-IBP4 antibody 1H9.B6 (antibody, mouse IgG1, kappa, V domains shown, Mouse hybridoma mAb raised against FL IBP4; also called IBP4-1H9.B6) VH: EVQLQQSGPELVKPGASVKISCKTSGYTFTDYYMNWVKQSHGKSLEWIGDINPNNGGAGYNQKFKGKATLTVDKSSSTAYMELRSLTSEDSAVYYCARWGWDRYFDYWGQGTTLTVSS VL: DIVMTQSQKFMSTSVGDRVSVTCKASQNVGIDVAWYQQKPGQSPKALIYSASYRSSGVPDRFTGSGSGTDFTLTINNVQSEDLAEYFCQQYNSYPLAFGSGTKLEIKR"
  ave RR: 0.602
- binder: "anti-IBP4 antibody 7G11.H4 (antibody, mouse IgG1, kappa, V domains shown, Mouse hybridoma mAb raised against FL IBP4; also called IBP4-7G11.H4) VH: QVQLQQSGAELVRPGASVTLSCKASGYTFTDYEMHWVRQTPVHGLEWIGAIDTETGGPAYNQKFKGKAILTADKSSSTAYMELRSLTSEDSAVYFCTRARGSRSVYYFDNWGQGTTLTVSS VL: DIVMTQSQKFMSTSVGDRVSVTCKASQNVDTNIAWYQQKPGHSPKALIYSASYRYSGVPDRFTGSGSGTDFTLTIGNVQSEDLADYFCQQYDTYPLTFGSGTKLEIKR"
  ave RR: 0.598
- binder: "anti-IBP4 antibody 3D4.E9 (antibody, mouse IgG2b, kappa, V domains shown, Mouse hybridoma mAb raised against FL IBP4; also called IBP4-3D4.E9) VH: QVQLQQSGAELVRPGASVTLSCKASGYTFTDYEMHWVKQTPVHGLEWIGAIDPETGGAAYNQKFKGKAILTADKSSSTAYMELRSLTSEDSAVYYCTRARGSSSVYYFDYWGQGTTLTVSS VL: DIVMTQSQKFMSTSVGDRVSVTCKASQNVGTNVAWYQQKPGQSPKALIYSTSYRYSGVPDRFTGSRSGTDFILTISNVQSEDLAEYFCQQYDSYPLTFGSGTKLEIKR"
  ave RR: 0.491

With those in mind, consider the next binder.
Specify reported ave RR for the binder shown: anti-IBP4 antibody 5C11.A7 (antibody, mouse IgG1, kappa, V domains shown, Mouse hybridoma mAb raised against FL IBP4; also called IBP4-5C11.A7) VH: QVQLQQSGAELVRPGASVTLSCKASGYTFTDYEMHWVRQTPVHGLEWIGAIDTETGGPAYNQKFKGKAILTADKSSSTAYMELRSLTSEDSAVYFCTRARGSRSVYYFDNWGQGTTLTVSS VL: DIVMTQSQKFMSTSVGDRVSVTCKASQNVGTNVAWYQQKPGHSPKVLIYSASYRHSGVPDRFTGSGSGTDFTLTIGNVQSEDLADYFCQQYDTYPLTFGSGTKLEIKR
0.651
